biological target: rhJAK3 (Homo sapiens); construct: recombinant purified GST-tagged catalytic domain for each enzyme; purchased Invitrogen PV3855; assay: JAK Biochemical HTRF Assay (JAK3); conditions: recombinant purified GST-tagged catalytic domain, HTRF format, [ATP] 1.7 μM; read-out: JAK3 IC50
pIC50: −log10 of the molar value.
experimental_readout: pIC50

Here's what some known entries look like.
>  <compound>
CC(C)[C@@H](Nc1cncc(-c2c[nH]c3ncc(F)cc23)n1)C(=O)NCC(F)(F)F [Example 16-1]

>  <experimental_readout>
pIC50

>  <value>
8.00 to 9.00

$$$$
>  <compound>
C[C@@H](Nc1cncc(-c2c[nH]c3ncc(-c4cnn5c4CCC5)cc23)n1)C(=O)NCC(F)(F)F [Example 15-9]

>  <experimental_readout>
pIC50

>  <value>
≥ 9.00

$$$$
>  <compound>
C[C@@H](Nc1cncc(-c2c[nH]c3ncc(-c4ccccc4OC(F)(F)F)cc23)n1)C(=O)NCC(F)(F)F [Example 15-14]

>  <experimental_readout>
pIC50

>  <value>
7.00 to 8.00

$$$$
>  <compound>
C[C@@H](Nc1cncc(-c2c[nH]c3ncc(-c4cccc(N5CCOCC5)c4)cc23)n1)C(=O)NCC(F)(F)F [Example 15-10]

>  <experimental_readout>
pIC50

>  <value>
≥ 9.00

$$$$
>  <compound>
COC(=O)c1cnc2[nH]cc(-c3cncc(N[C@@H](C(=O)NCC(F)(F)F)C(C)C)n3)c2c1 [Example 16-3]

>  <experimental_readout>
pIC50

>  <value>
8.00 to 9.00

$$$$

Looking up CC(c1cccc(-c2cnc3[nH]cc(-c4cncc(N[C@H](C)C(=O)NCC(F)(F)F)n4)c3c2)c1)N1CCCC1 (stereo partly shown) [Example 15-11] , I see its pIC50 listed as ≥ 9.00

Looking up C[C@@H](Nc1cncc(-c2c[nH]c3ncc(-c4ccc(C(O)C(F)(F)F)cc4)cc23)n1)C(=O)NCC(F)(F)F (stereo partly shown) [Example 15-3] , I see its pIC50 listed as ≥ 9.00

###

target: rhJAK3 (Homo sapiens, UniProt P52333); construct: recombinant purified GST-tagged catalytic domain for each enzyme; purchased Invitrogen PV3855; assay: JAK Biochemical HTRF Assay (JAK3); conditions: recombinant purified GST-tagged catalytic domain, HTRF format, [ATP] 1.7 μM; read-out: rhJAK3 IC50
Sequence (P52333 822-1111 limits assumed): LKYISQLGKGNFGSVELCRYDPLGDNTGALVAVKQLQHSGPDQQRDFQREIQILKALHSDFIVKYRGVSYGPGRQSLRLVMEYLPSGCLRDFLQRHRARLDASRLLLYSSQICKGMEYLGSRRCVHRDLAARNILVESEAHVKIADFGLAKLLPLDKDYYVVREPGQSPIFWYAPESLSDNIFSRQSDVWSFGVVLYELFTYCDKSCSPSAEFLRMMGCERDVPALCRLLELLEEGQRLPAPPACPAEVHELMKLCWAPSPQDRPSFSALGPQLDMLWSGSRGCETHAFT
pIC50: −log10 of the molar value.
experimental_readout: pIC50

Here's what some known entries look like.
>  <compound>
C[C@@H](Nc1cncc(-c2c[nH]c3ncc(Cl)cc23)n1)C(=O)NCC(=O)NC1CCCC1

>  <value>
6.00 to 7.00

$$$$
>  <compound>
O=C(CCc1cncc(-c2c[nH]c3ncc(Cl)cc23)n1)NCC(F)(F)F

>  <value>
7.00 to 8.00

$$$$
>  <compound>
O=C(Cc1cncc(-c2c[nH]c3ncc(Cl)cc23)n1)N1CCOCC1

>  <value>
6.00 to 7.00

$$$$
>  <compound>
CS(=O)(=O)N1CCN(c2cncc(-c3c[nH]c4ncc(Cl)cc34)n2)[C@@H](C(=O)NCC(F)(F)F)C1

>  <value>
8.00 to 9.00

$$$$
>  <compound>
CC(Cc1cccnc1)NC(=O)[C@@H](C)Nc1cncc(-c2c[nH]c3ncc(Cl)cc23)n1 (stereo partly drawn)

>  <value>
6.00 to 7.00

$$$$
>  <compound>
C[C@H](Nc1cncc(-c2c[nH]c3ncc(Cl)cc23)n1)C(=O)NCC#N

>  <value>
7.00 to 8.00

$$$$

// assay rhJAK3 (Homo sapiens, UniProt P52333), entry "C[C@@H](Nc1cncc(-c2c[nH]c3ncc(C4CC4)cc23)n1)C(=O)NCC(F)(F)F" , pIC50 value = ≥ 9.00

// assay rhJAK3 (Homo sapiens, UniProt P52333), entry "CC(C)[C@@H](Nc1cncc(-c2c[nH]c3ncc(C(N)=O)cc23)n1)C(=O)NCC(F)(F)F" , pIC50 value = ≥ 9.00

// assay rhJAK3 (Homo sapiens, UniProt P52333), entry "C[C@H](Nc1cncc(-c2c[nH]c3ncc(Cl)cc23)n1)C(=O)NCCC(F)(F)F" , pIC50 value = 7.00 to 8.00

// assay rhJAK3 (Homo sapiens, UniProt P52333), entry "N#CCNC(=O)Cc1cncc(-c2c[nH]c3ncc(Cl)cc23)n1" , pIC50 value = 7.00 to 8.00

// assay rhJAK3 (Homo sapiens, UniProt P52333), entry "O=C(NCC(F)(F)F)[C@H]1CC[C@H](Nc2cncc(-c3c[nH]c4ncc(Cl)cc34)n2)C1" , pIC50 value = 7.00 to 8.00

// assay rhJAK3 (Homo sapiens, UniProt P52333), entry "O=C(NCCC(F)(F)F)C1(Nc2cncc(-c3c[nH]c4ncc(Cl)cc34)n2)CCCC1" , pIC50 value = 6.00 to 7.00

###

target: rhJAK3 (Homo sapiens, UniProt P52333); construct: recombinant purified GST-tagged catalytic domain for each enzyme; purchased Invitrogen PV3855; test: JAK Biochemical HTRF Assay (JAK3); conditions: recombinant purified GST-tagged catalytic domain, HTRF format, [ATP] 1.7 μM; read-out: rhJAK3 IC50
pIC50: −log10 of the molar value.
experimental_readout: pIC50

>  <compound>
C[C@@H](Nc1cncc(-c2c[nH]c3ncc(Cl)cc23)n1)C(=O)NCc1cccnc1Cl

>  <pIC50>
6.00 to 7.00

$$$$
>  <compound>
Cc1cc(CNC(=O)[C@@H](C)Nc2cncc(-c3c[nH]c4ncc(Cl)cc34)n2)no1

>  <pIC50>
6.00 to 7.00

$$$$
>  <compound>
C/C(=C\c1cncc(-c2c[nH]c3ncc(Cl)cc23)n1)C(=O)NCC(F)(F)F

>  <pIC50>
7.00 to 8.00

$$$$
>  <compound>
O=C(NCC(F)(F)F)[C@@H]1CC(F)(F)CN1c1cncc(-c2c[nH]c3ncc(Cl)cc23)n1

>  <pIC50>
8.00 to 9.00

$$$$
>  <compound>
Cc1cnc2[nH]cc(-c3cncc(N[C@H](C)C(=O)NCC(F)(F)F)n3)c2c1

>  <pIC50>
8.00 to 9.00

$$$$
>  <compound>
O=C(NCC(F)(F)F)[C@H]1CC[C@@H](Nc2cncc(-c3c[nH]c4ncc(Cl)cc34)n2)C1

>  <pIC50>
8.00 to 9.00

$$$$

Looking up "C[C@@]1(C(=O)NCC(F)(F)F)CCN1c1cncc(-c2c[nH]c3ncc(Cl)cc23)n1" , I see its pIC50 listed as 8.00 to 9.00

Looking up "COC(=O)c1ncc(N[C@@H](C)C(=O)NCC(F)(F)F)nc1-c1c[nH]c2ncc(Cl)cc12" , I see its pIC50 listed as 7.00 to 8.00

Looking up C[C@@H](Nc1cncc(-c2c[nH]c3ncc(Cl)cc23)n1)C(=O)NC1CCCCNC1=O (some centres unmarked) , I see its pIC50 listed as 6.00 to 7.00

Looking up "C[C@H](Oc1cncc(-c2c[nH]c3ncc(Cl)cc23)n1)C(=O)NCC(F)(F)F" , I see its pIC50 listed as 8.00 to 9.00

Looking up "N#CCCNC(=O)Cc1cncc(-c2c[nH]c3ncc(Cl)cc23)n1" , I see its pIC50 listed as 6.00 to 7.00

Looking up "C[C@@H](Nc1cncc(-c2c[nH]c3ncc(Cl)cc23)n1)C(=O)N1CCC(F)(F)CC1" , I see its pIC50 listed as 6.00 to 7.00

Looking up "C[C@@H](Nc1cncc(-c2c[nH]c3ncc(Cl)cc23)n1)C(=O)NCc1cccs1" , I see its pIC50 listed as 6.00 to 7.00

Looking up "C[C@H](Nc1cncc(-c2c[nH]c3ncc(Cl)cc23)n1)C(=O)N1CC(F)(F)C(F)(F)C1" , I see its pIC50 listed as 6.00 to 7.00

Looking up "O=C(NCC(F)(F)F)C1(Nc2cncc(-c3c[nH]c4ncc(Cl)cc34)n2)CCCC1" , I see its pIC50 listed as ≥ 9.00

Looking up "C[C@@H](Nc1cncc(-c2c[nH]c3ncc(Cl)cc23)n1)C(=O)NCc1ccc(C(F)(F)F)cc1" , I see its pIC50 listed as 6.00 to 7.00

###

target: rhJAK3 (Homo sapiens, UniProt P52333); construct: recombinant purified GST-tagged catalytic domain for each enzyme; purchased Invitrogen PV3855; assay: JAK Biochemical HTRF Assay (JAK3); details: recombinant purified GST-tagged catalytic domain, HTRF format, [ATP] 1.7 μM; read-out: JAK3 IC50
pIC50: −log10 of the molar value.
Entries annotated with measured pIC50

Here's what some known entries look like.
>  <compound>
C[C@@H](Nc1cncc(-c2c[nH]c3ncc(-c4cncc(C#N)c4)cc23)n1)C(=O)NCC(F)(F)F [Example 15-19]

>  <pIC50>
≥ 9.00

$$$$
>  <compound>
C[C@@H](Nc1cncc(-c2c[nH]c3ncc(-c4ccc(CC#N)nc4)cc23)n1)C(=O)NCC(F)(F)F [Example 15-2]

>  <pIC50>
≥ 9.00

$$$$
>  <compound>
CC(C)(Nc1cncc(-c2c[nH]c3ncc(F)cc23)n1)C(=O)NCC(F)(F)F [Example 16-5]

>  <pIC50>
≥ 9.00

$$$$
>  <compound>
C[C@@H](Nc1cncc(-c2c[nH]c3ncc(CN4CCC(F)C4)cc23)n1)C(=O)NCC(F)(F)F (stereo partly drawn) [Example 15-8]

>  <pIC50>
7.00 to 8.00

$$$$
>  <compound>
C[C@@H](Nc1cncc(-c2c[nH]c3ncc(C4=CCCOC4)cc23)n1)C(=O)NCC(F)(F)F [Example 15-16]

>  <pIC50>
≥ 9.00

$$$$

Looking up C[C@@H](Nc1cncc(-c2c[nH]c3ncc(-c4ccnn4C)cc23)n1)C(=O)NCC(F)(F)F [Example 15-5] , I see its pIC50 listed as 8.00 to 9.00

Looking up COc1cncc(-c2cnc3[nH]cc(-c4cncc(N[C@H](C)C(=O)NCC(F)(F)F)n4)c3c2)c1 [Example 15-18] , I see its pIC50 listed as ≥ 9.00
